Some molecules, each annotated with its measured combination Emax.
- Test system: KCL-22 (Chronic Myelogenous Leukemia)
- test_details: combination Emax (second highest fraction inhibited in the dose matrix, 72 h); higher = more inhibition; extreme values may be limits of the assay
attribute_measured: combination Emax

1) Cc1c2c(nn1C)CSCc1cc(n(C)n1)CSc1cc(c3ccccc3c1)OCCCc1c(C(=O)O)n(C)c3c-2c(Cl)ccc13 [AZD5991] + C=CCn1c(=O)c2cnc(Nc3ccc(N4CCN(C)CC4)cc3)nc2n1-c1cccc(C(C)(C)O)n1 [AZD1775] (first compound max 1 µM, partner max 1 µM)    0.969
2) NC1(C(=O)N[C@@H](CCO)c2ccc(Cl)cc2)CCN(c2ncnc3[nH]ccc23)CC1 [Capivasertib] + Cn1cnc2c(F)c(Nc3ccc(Br)cc3Cl)c(C(=O)NOCCO)cc21 [Selumetinib] (first compound max 10 µM, 7x7, partner max 10 µM)    0.604
3) CCN(CCO)CCCOc1ccc2c(Nc3cc(CC(=O)Nc4cccc(F)c4)[nH]n3)ncnc2c1 [AZD2811] + C[C@@H]1COCCN1C2=NC(=NC(=C2)C3(CC3)[S@](=N)(=O)C)C4=C5C=CNC5=NC=C4 [AZD6738] (first compound max 1 µM, 7x7, partner max 10 µM)    0.986
4) NC1(C(=O)N[C@@H](CCO)c2ccc(Cl)cc2)CCN(c2ncnc3[nH]ccc23)CC1 [Capivasertib] + C[C@@H]1COCCN1C2=NC(=NC(=C2)C3(CC3)[S@](=N)(=O)C)C4=C5C=CNC5=NC=C4 [AZD6738] (first compound max 10 µM, 7x7, partner max 10 µM)    0.979
5) COc1nnc2ccc(N3CCC(c4ccc(OCCN5CCN(C)C(=O)[C@H]5C)cc4)CC3)nn12 [AZD5153] + C=CCn1c(=O)c2cnc(Nc3ccc(N4CCN(C)CC4)cc3)nc2n1-c1cccc(C(C)(C)O)n1 [AZD1775] (first compound max 1 µM, partner max 1 µM)    0.927
6) CC(=O)c1c(C)c2cnc(Nc3ccc(N4CCNCC4)cn3)nc2n(C2CCCC2)c1=O [Palbociclib] + Cn1cnc2c(F)c(Nc3ccc(Br)cc3Cl)c(C(=O)NOCCO)cc21 [Selumetinib] (first compound max 10 µM, 7x7, partner max 10 µM)    0.569
7) CC1(C)CCC(CN2CCN(c3ccc(C(=O)NS(=O)(=O)c4ccc(NCC5CCOCC5)c([N+](=O)[O-])c4)c(Oc4cnc5[nH]ccc5c4)c3)CC2)=C(c2ccc(Cl)cc2)C1 [Venetoclax] + Cn1cnc2c(F)c(Nc3ccc(Br)cc3Cl)c(C(=O)NOCCO)cc21 [Selumetinib] (first compound max 1 µM, 7x7, partner max 3 µM)    0.318
8) COc1cccc(OCCCN)c1-c1cc(Nc2cnc(C#N)cn2)n[nH]1 [Prexasertib] + CCc1c2c(nc3ccc(O)cc13)-c1cc3c(c(=O)n1C2)COC(=O)[C@]3(O)CC [SN-38] (first compound max 1 µM, 7x7, partner max 0.3 µM)    0.989
9) COc1cc2ncnc(Nc3ccc(F)c(Cl)c3)c2cc1OCCCN1CCOCC1 [Gefitinib] + CC(C)n1c(=O)n(C)c2cnc3cc(F)c(-c4ccc(OCCCN5CCCCC5)nc4)cc3c21 [AZD1390] (first compound max 10 µM, 7x7, partner max 0.3 µM)    0.155
10) CC1(C)CCC(CN2CCN(c3ccc(C(=O)NS(=O)(=O)c4ccc(NCC5CCOCC5)c([N+](=O)[O-])c4)c(Oc4cnc5[nH]ccc5c4)c3)CC2)=C(c2ccc(Cl)cc2)C1 [Venetoclax] + COc1cc(Nc2ncc3c(n2)-c2ccc(Cl)cc2C(c2c(F)cccc2OC)=NC3)ccc1C(=O)O [Alisertib] (first compound max 1 µM, 7x7, partner max 10 µM)    0.811
11) CN(CCO)CC[C@H](CSc1ccccc1)Nc1ccc(S(=O)(=O)NC(=O)c2ccc(N3CCC([C@@H](O)c4ccccc4-c4ccc(Cl)cc4)CC3)cc2)cc1S(=O)(=O)C(F)(F)F [AZD4320] + Cn1cnc2c(F)c(Nc3ccc(Br)cc3Cl)c(C(=O)NOCCO)cc21 [Selumetinib] (first compound max 1 µM, 7x7, partner max 3 µM)    0.557
12) C=CCn1c(=O)c2cnc(Nc3ccc(N4CCN(C)CC4)cc3)nc2n1-c1cccc(C(C)(C)O)n1 [AZD1775] + C[C@@H]1COCCN1C2=NC(=NC(=C2)C3(CC3)[S@](=N)(=O)C)C4=C5C=CNC5=NC=C4 [AZD6738] (first compound max 1 µM, partner max 10 µM)    1
13) Cc1cc2ncnn2cc1Nc1ncc2c(n1)n(C1CCOCC1)c(=O)n2C [AZD7648] + CN(C)CCCOc1ccc(-c2ccc3ncc4c(c3c2)n(C2CCOCC2)c(=O)n4C)cn1 [AZD0156] (first compound max 10 µM, 7x7, partner max 1 µM)    0.332
14) Cc1cc2ncnn2cc1Nc1ncc2c(n1)n(C1CCOCC1)c(=O)n2C [AZD7648] + CCN(CCO)CCCOc1ccc2c(Nc3cc(CC(=O)Nc4cccc(F)c4)[nH]n3)ncnc2c1 [AZD2811] (first compound max 10 µM, 7x7, partner max 1 µM)    0.485
15) COc1cccc(OCCCN)c1-c1cc(Nc2cnc(C#N)cn2)n[nH]1 [Prexasertib] + CN(C)CCCOc1ccc(-c2ccc3ncc4c(c3c2)n(C2CCOCC2)c(=O)n4C)cn1 [AZD0156] (first compound max 1 µM, 7x7, partner max 1 µM)    1

Data credit: the supplement of paper PMC11061612
